Below, each entry is listed with its recorded TGI.
Tested on: HS 578T breast
Run Description: NCI tumour cell line growth inhibition, 48 h

Some entries whose results are on file:
• O=C1NC(N2CCCCC2)=N/C1=C\c1ccco1 = > 100 µM
• COc1ccc2c(c1)C(=O)c1c-2n(CCCCl)c(=O)c2cc(N)ccc12 = > 100 µM
• COc1cccc(CCn2c(N)c(C#N)c3ccc([N+](=O)[O-])cc3c2=O)c1 = > 46.4 µM
• COc1ccc(NC(=O)c2cccc(C3CCc4c(cc(OC)c(OC)c4OC)O3)c2)cc1 (stereo not given) = > 100 µM

Turning to the following compound.
Asked: Reported TGI for HS 578T breast, given Cc1cc(S(=O)(=O)NC2=NCC(C)(C)CN2)c(S)cc1Cl ?
Given back: 87.6 µM

---

Some compounds, each annotated with its measured TGI.
System: NCI-H23 lung
Run Description: NCI tumour cell line growth inhibition, 48 h
Provide only the numeric value, understood in µM.

* Cc1ccc(/C(=C/C=C(C#N)C#N)Sc2nc3ccccc3s2)cc1 | 11.6

Asked: Please give the measured TGI for this compound: COc1ccc2[nH]c3c(O)c(-c4c(C)cc5c([nH]c6ccc(OC)cc65)c4O)c(C)cc3c2c1
Given back: 8.38

Asked: Entry under review: CSc1cc(C(C)(C)C)ccc1C(O)c1ccc(C(C)(C)C)cc1SC . Reported TGI?
Given back: 29.8

Asked: Item under review: COc1cccc(/C=C/C(=O)N2CC(CCl)c3c2cc(N)c2ccccc32)c1 (stereo not drawn) . Reported TGI?
Given back: 0.0124

---

Collected TGI values appear next to each entry.
Tested on: OVCAR-8 ovarian
Run Description: NCI tumour cell line growth inhibition, 48 h

Example entries begin here.
* Cc1ccc2c(c1)CC1(C2)Cc2ccc(C)cc2C1=O (stereo unspecified) | > 100 µM
* O=C(NCc1ccccc1)C1C(=O)C(=O)N(Cc2ccccc2)C1=O (stereo unspecified) | > 100 µM
* c1ccc2c(c1)[nH]c1c3ccccc3sc21 | > 100 µM
* O=C1c2c(O)cccc2Cc2cc(CO)cc(O)c21 | 12.8 µM
* CC(=O)c1ccc(Oc2c3ccccc3nc3occc23)cc1 | > 100 µM

Asked: Query: TGI; subject: Cc1ccc(NC(=O)CCC(=O)C2Cc3ccccc3C2=O)cc1C (stereo unspecified)
Given back: > 100 µM

Asked: Which TGI value belongs to CCc1cccc(NC(=O)c2cc(/C=C/c3ccccc3)[nH]c(=S)n2)c1 ?
Given back: > 100 µM

---

// reported TGI for each item listed
Tested on: SF-539 CNS
Run Description: NCI tumour cell line growth inhibition, 48 h
Value expressed in µM; do not type the unit.

Examples with answers:
- COc1ccc(-c2nnc(Nc3nc(O)c(C4=c5cc(Br)ccc5=NC4=O)s3)o2)cc1: 41.3
- OCC1OC(n2cnc3c(NCc4ccccc4O)ncnc32)C(O)C1O (centres undefined): 2.49
- CCOC(=O)CCc1ccc(NC(=O)/C=C/c2ccc([N+](=O)[O-])o2)cc1: 3.99

Asked: Requested read-out: TGI. Entry: O=C(CCl)Nc1ccc(Cc2ccc(NC(=O)CCl)cc2)cc1
Given back: 3.28

Asked: Requested read-out: TGI. Entry: Cc1ccc(C2C3Cc4ccccc4C3=NN2c2ccc(S(=O)(=O)NC(=O)Nc3ccccc3)cc2)cc1 (centres undefined)
Given back: 30.6

Every entry's value here was drawn from PubChem BioAssay (NCI).
